Source: patent US8518443B2

assay type: in vivo; conditions: in comparison to a 15 mg dose of hydrocodone
reported_property: Equianalgesic dose, Calculated Dose (mg)
Reply numerically in mg, unit not repeated.

molecule=COc1ccc2c3c1O[C@H]1C(=O)CC[C@@]4(O)[C@@H](C2)N(C)CC[C@]314 data_value=13.5
molecule="CCC(=O)C(CC(C)N(C)C)(c1ccccc1)c1ccccc1 (centres unmarked)" data_value=9.0
molecule="COc1ccc2c3c1OC1C(=O)CC[C@H]4[C@@H](C2)N(C)CC[C@]314 (some centres unmarked) [Hydrocodone]" data_value=15.0
molecule=CN1CC[C@]23CCCC[C@H]2[C@H]1Cc1ccc(O)cc13 data_value=1.8

Consider the record given below.
Query: Need Equianalgesic dose, Calculated Dose, item COc1ccc2c3c1O[C@H]1[C@@H](O)C=C[C@H]4[C@@H](C2)N(C)CC[C@@]341
Reply: 90.0
